Listing of entries alongside the reported interaction score.
Target under test: T1, 4H2692-bA
T1 chain: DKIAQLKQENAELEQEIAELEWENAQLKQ
Run description: two-hybrid library CCNG1;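 note: natural log of median RNA to DNA barcode read ratio; higher means stronger binding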
Assay endpoint: interaction score

binder="DKIAQLKQENAELEQEIAELEWENAQLKQ [4H2692-bA]" assay_endpoint="interaction score" endpoint_value=-0.461
binder="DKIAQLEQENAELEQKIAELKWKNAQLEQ [4H2223-bA]" assay_endpoint="interaction score" endpoint_value=-0.196
binder="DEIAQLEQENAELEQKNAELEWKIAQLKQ [4H182-bA]" assay_endpoint="interaction score" endpoint_value=0.136
binder="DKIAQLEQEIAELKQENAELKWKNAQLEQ [4H2143-bA]" assay_endpoint="interaction score" endpoint_value=-0.33
